Assignment: determine reported self-splicing fitness (ln) for the given sequences.
- experimental details: self-splicing fitness, log relative to wild type (ln ratio); higher = more splicing; Tetrahymena group I intron in knt gene, E. coli kanamycin selection, DiMSum; sequences stand for … in CUCUCU…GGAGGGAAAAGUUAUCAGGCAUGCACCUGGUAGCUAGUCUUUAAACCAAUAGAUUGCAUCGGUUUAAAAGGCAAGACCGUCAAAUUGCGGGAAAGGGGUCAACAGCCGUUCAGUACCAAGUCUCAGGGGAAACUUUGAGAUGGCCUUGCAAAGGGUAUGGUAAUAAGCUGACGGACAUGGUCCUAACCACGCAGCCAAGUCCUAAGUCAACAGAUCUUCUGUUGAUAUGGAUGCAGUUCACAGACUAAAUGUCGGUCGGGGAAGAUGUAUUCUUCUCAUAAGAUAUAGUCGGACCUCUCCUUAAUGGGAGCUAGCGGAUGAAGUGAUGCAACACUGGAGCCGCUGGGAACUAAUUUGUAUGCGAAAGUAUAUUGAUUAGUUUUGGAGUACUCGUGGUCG;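 further: selection with 25 µg/mL kanamycin versus none on LB agar overnight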
- experimental context: 30 °C

macromolecule sequence	self-splicing fitness (ln)
AUCUAGCAAUAUUACGGGUC	-5.59
UGGCAGCAAUAUUACGUGGA	-2.38
CGUCAGCAAUAUUACGUAAU	-2.93
CCUUAGCAAUAUUACGGACA	-2.53
UAGUAGCAAUAUUACGAGUG	-1.66

Record self-splicing fitness (ln) per entry; entries follow.
1. AACUAGCAAUAUUACGAAUU
2. CUACAGCAAUAUUACGAUAU
3. CCACAGCAAUAUUACGUGAA
4. UGAGAGCAAUAUUACGAUGG
5. AGUAAGCAAUAUUACGUUAU
6. UCCCAGCAAUAUUACGGUUA

Reply:
1. -1.49
2. -3.89
3. -2.7
4. -3.59
5. -3.25
6. -0.244

Record self-splicing fitness (ln) per entry; entries follow.
1. CACUAGCAAUAUUACGUUCC
2. CAUGAGCAAUAUUACGAUGA
3. GUAGAGCAAUAUUACGUUAC
4. CUUUAGCAAUAUUACGGCUG

Reply:
1: -3.39; 2: -3.5; 3: -2.63; 4: -1.48

---

- experimental details: self-splicing fitness, log relative to wild type (ln ratio); higher = more splicing; Tetrahymena group I intron in knt gene, E. coli kanamycin selection, DiMSum; sequences stand for … in CUCUCU…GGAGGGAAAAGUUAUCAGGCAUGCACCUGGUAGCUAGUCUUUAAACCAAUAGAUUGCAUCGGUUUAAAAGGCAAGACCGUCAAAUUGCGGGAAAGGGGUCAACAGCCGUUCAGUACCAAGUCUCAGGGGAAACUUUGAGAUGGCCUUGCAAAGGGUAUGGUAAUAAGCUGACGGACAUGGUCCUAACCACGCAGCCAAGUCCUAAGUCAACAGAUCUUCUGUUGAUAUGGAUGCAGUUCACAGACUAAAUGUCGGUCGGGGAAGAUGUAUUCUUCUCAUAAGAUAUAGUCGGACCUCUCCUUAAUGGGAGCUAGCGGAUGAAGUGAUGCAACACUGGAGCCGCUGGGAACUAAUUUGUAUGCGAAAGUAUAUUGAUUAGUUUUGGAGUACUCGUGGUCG
- experimental context: 30 °C
Assignment: determine reported self-splicing fitness (ln) for the given sequences.
Give bare numbers.

Consider the reported self-splicing fitness (ln) for these sequences:
macromolecule sequence	meas value
CCAGAGCAAUAUUACGACAC	-1.29
UGUAAGCAAUAUUACGUUCA	-0.719
AUCAAGCAAUAUUACGGGUC	-3.33
GGUGAGCAAUAUUACGUCCA	-2.91
GAUGAGCAAUAUUACGGCGG	-3.43

Record self-splicing fitness (ln) per entry; entries follow.
1. AGCCAGCAAUAUUACGCUCU
2. AUGUAGCAAUAUUACGUCCA

Reply:
-1.94
-1.65

Record self-splicing fitness (ln) per entry; entries follow.
1. UCCAAGCAAUAUUACGUAGA
2. CCUCAGCAAUAUUACGUCGU
3. UUUCAGCAAUAUUACGAGUU
4. AUCUAGCAAUAUUACGCCCU
5. GUUUAGCAAUAUUACGGUGC
6. GAAAAGCAAUAUUACGGUUU
7. AGCUAGCAAUAUUACGGCGA
8. CUAAAGCAAUAUUACGCUAG

Reply:
-0.92
-3.24
-2.96
-0.479
-1.02
-0.79
-0.581
-3.41

Record self-splicing fitness (ln) per entry; entries follow.
1. GGAUAGCAAUAUUACGCGAC
2. UGACAGCAAUAUUACGUUUC
3. CCGAAGCAAUAUUACGUGGG
4. CCAAAGCAAUAUUACGAUGU
5. AACCAGCAAUAUUACGACAA
6. UCCCAGCAAUAUUACGCUUA
7. GAACAGCAAUAUUACGAGAA
8. GCUGAGCAAUAUUACGAACA

Reply:
1: -3.69; 2: -1.65; 3: -3.82; 4: -2.93; 5: -1.14; 6: -2.26; 7: -3.45; 8: -3.44

Record self-splicing fitness (ln) per entry; entries follow.
1. UGGUAGCAAUAUUACGCCGU
2. AGGAAGCAAUAUUACGUCAC
3. UGAUAGCAAUAUUACGAGCU
4. AGAGAGCAAUAUUACGUAUG
5. CUACAGCAAUAUUACGGAAU
6. AAGGAGCAAUAUUACGGUUA
7. AAGGAGCAAUAUUACGCCCA

Reply:
-1.56
-3.41
-1.44
-4.21
-4.13
-2.54
-1.88

Record self-splicing fitness (ln) per entry; entries follow.
1. GUAGAGCAAUAUUACGGGUC
2. AAUAAGCAAUAUUACGGAGA
3. UGUUAGCAAUAUUACGGUGG
4. CUUGAGCAAUAUUACGAAGG
5. AACAAGCAAUAUUACGAAGG
6. ACUUAGCAAUAUUACGUAAC
7. CCUAAGCAAUAUUACGGUUU
8. CGCAAGCAAUAUUACGACAU

Reply:
1. -2.19
2. -2.61
3. -1.95
4. -1.97
5. -2.77
6. -2.9
7. -4.49
8. -3

Record self-splicing fitness (ln) per entry; entries follow.
1. UACCAGCAAUAUUACGCACA
2. CGCAAGCAAUAUUACGUCAC
3. GGGCAGCAAUAUUACGCUCA

Reply:
[-0.477, -3.45, -1.09]

Record self-splicing fitness (ln) per entry; entries follow.
1. ACGGAGCAAUAUUACGUCAU
2. GCUUAGCAAUAUUACGGUCU

Reply:
-4.36
-0.834

Record self-splicing fitness (ln) per entry; entries follow.
1. GCAUAGCAAUAUUACGCCAA
2. AAGUAGCAAUAUUACGGGGC
3. GCAGAGCAAUAUUACGUAUG

Reply:
-4.09
-3.29
-2.86

---

Assignment: determine reported self-splicing fitness (ln) for the given sequences.
- experimental details: self-splicing fitness, log relative to wild type (ln ratio); higher = more splicing; Tetrahymena group I intron in knt gene, E. coli kanamycin selection, DiMSum; sequences stand for … in CUCUCU…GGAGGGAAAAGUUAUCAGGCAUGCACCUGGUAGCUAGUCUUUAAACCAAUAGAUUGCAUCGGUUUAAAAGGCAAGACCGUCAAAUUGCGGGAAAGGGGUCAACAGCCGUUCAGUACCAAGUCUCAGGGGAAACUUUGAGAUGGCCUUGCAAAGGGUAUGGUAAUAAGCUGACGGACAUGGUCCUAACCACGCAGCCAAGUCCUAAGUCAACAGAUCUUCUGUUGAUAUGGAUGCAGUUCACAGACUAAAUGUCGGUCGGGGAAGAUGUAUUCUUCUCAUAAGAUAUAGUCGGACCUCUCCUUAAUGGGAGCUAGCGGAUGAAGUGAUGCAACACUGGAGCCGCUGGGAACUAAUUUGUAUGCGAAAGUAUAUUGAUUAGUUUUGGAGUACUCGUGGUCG
- experimental context: 30 °C
Give bare numbers.

macromolecule sequence	meas value
UUCGAGCAAUAUUACGUAGU	-2.91
UAUGAGCAAUAUUACGUAUG	-2.35
UAGAAGCAAUAUUACGUUUU	-3.58
AUGGAGCAAUAUUACGAGGU	-2.74
CGUAAGCAAUAUUACGUAAA	-3.15
GCACAGCAAUAUUACGCGCA	-0.993

Record self-splicing fitness (ln) per entry; entries follow.
1. CCAGAGCAAUAUUACGGAAU
2. UGAAAGCAAUAUUACGGACA
3. AGUAAGCAAUAUUACGUGGC
4. AUCAAGCAAUAUUACGCAGC

Reply:
-3.42
-0.0695
-2.68
-2.12

---

- experimental details: self-splicing fitness, log relative to wild type (ln ratio); higher = more splicing; Tetrahymena group I intron in knt gene, E. coli kanamycin selection, DiMSum; sequences stand for … in CUCUCU…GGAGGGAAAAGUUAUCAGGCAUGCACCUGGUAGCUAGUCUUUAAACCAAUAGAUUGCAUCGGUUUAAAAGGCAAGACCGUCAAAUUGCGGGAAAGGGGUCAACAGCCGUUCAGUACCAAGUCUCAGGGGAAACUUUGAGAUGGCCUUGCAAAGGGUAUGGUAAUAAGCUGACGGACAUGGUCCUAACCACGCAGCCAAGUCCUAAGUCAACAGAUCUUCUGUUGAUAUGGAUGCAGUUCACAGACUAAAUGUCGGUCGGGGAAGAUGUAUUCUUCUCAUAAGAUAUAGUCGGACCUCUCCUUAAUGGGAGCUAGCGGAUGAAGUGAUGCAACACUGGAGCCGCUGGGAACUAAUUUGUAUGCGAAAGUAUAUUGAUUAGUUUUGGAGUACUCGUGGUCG
- experimental context: 37 °C
Binary call on self-splicing fitness (ln): Satisfied from -0.7 upward, Not satisfied beneath that.

macromolecule sequence	assigned category
AAGUAGCAAUAUUACGCCGU	Satisfied
GCAUAGCAAUAUUACGUCAA	Not satisfied
UUCCAGCAAUAUUACGCGUA	Satisfied

Query: self-splicing fitness (ln) >= -0.7 for `AAGCAGCAAUAUUACGUCUA` ?
Reply: Not satisfied

Query: self-splicing fitness (ln) >= -0.7 for `GCGCAGCAAUAUUACGGAGU` ?
Reply: Not satisfied

Query: self-splicing fitness (ln) >= -0.7 for `GCAAAGCAAUAUUACGGCUG` ?
Reply: Not satisfied

Query: self-splicing fitness (ln) >= -0.7 for `UUAUAGCAAUAUUACGACUG` ?
Reply: Satisfied

Query: self-splicing fitness (ln) >= -0.7 for `GCGGAGCAAUAUUACGAGCU` ?
Reply: Satisfied

Query: self-splicing fitness (ln) >= -0.7 for `CACUAGCAAUAUUACGUUAA` ?
Reply: Not satisfied

Query: self-splicing fitness (ln) >= -0.7 for `GGGCAGCAAUAUUACGACCU` ?
Reply: Not satisfied

Query: self-splicing fitness (ln) >= -0.7 for `GAUAAGCAAUAUUACGCUUA` ?
Reply: Not satisfied

Query: self-splicing fitness (ln) >= -0.7 for `UAAGAGCAAUAUUACGGAUU` ?
Reply: Not satisfied

Query: self-splicing fitness (ln) >= -0.7 for `AAUCAGCAAUAUUACGAAGU` ?
Reply: Satisfied
